assay: Proportions of cis and trans at the photostationary state in DMSO from absorbance spectra (Ernst Fischer method); format: physicochemical; details: 405 nm
// %trans at the photostationary state lookup, one value per entry

Query: Form field: reported %trans at the photostationary state of Cc1cc(OCC(O)C(C)(C)C)ccc1/N=N/c1cccc(-c2ccc(CO)cc2C)c1 (stereo not shown) [Compound 12d]
Reply: 36,23%

Query: Form field: reported %trans at the photostationary state of Cc1cc(/N=N/c2cccc(-c3ccc(C(=O)O)cc3)c2)ccc1OCC(O)C(C)(C)C (stereo not shown) [Compound 11a]
Reply: 39,46%

Query: Form field: reported %trans at the photostationary state of COC(=O)c1ccc(-c2cccc(/N=N/c3ccc(OCC(O)C(C)(C)C)cc3C)c2)cc1 (stereo not shown) [Compound 10b]
Reply: 34,00%

Let us examine a further case.
Query: Form field: reported %trans at the photostationary state of Cc1cc(/N=N/c2cccc(-c3ccc(C(=O)O)cc3C)c2)ccc1OCC(O)C(C)(C)C (stereo not shown) [Compound 11c]
Reply: 38,64%

---

// %trans at the photostationary state lookup, one value per entry
assay: Proportions of cis and trans at the photostationary state in DMSO from absorbance spectra (Ernst Fischer method); format: physicochemical; settings: 500 nm

Query: Form field: reported %trans at the photostationary state of Cc1cc(OCC(O)C(C)(C)C)ccc1/N=N/c1cccc(-c2ccc(C(=O)O)cc2C)c1 (centres unmarked) [Compound 11d]
Reply: 70,26%

More entries:
Query: Form field: reported %trans at the photostationary state of COC(=O)c1ccc(-c2cccc(/N=N/c3ccc(OCC(O)C(C)(C)C)cc3C)c2)c(C)c1 (centres unmarked) [Compound 10d]
Reply: 74,79%

Query: Form field: reported %trans at the photostationary state of Cc1cc(/N=N/c2cccc(-c3ccc(C(=O)O)cc3)c2)ccc1OCC(O)C(C)(C)C (centres unmarked) [Compound 11a]
Reply: 73,41%

Query: Form field: reported %trans at the photostationary state of Cc1cc(/N=N/c2cccc(-c3ccc(CO)cc3C)c2)ccc1OCC(O)C(C)(C)C (centres unmarked) [Compound 12c]
Reply: 69,52%

Query: Form field: reported %trans at the photostationary state of COC(=O)c1ccc(-c2cccc(/N=N/c3ccc(OCC(O)C(C)(C)C)c(C)c3)c2)cc1 (centres unmarked) [Compound 10a]
Reply: 74,46%

Query: Form field: reported %trans at the photostationary state of COC(=O)c1ccc(-c2cccc(/N=N/c3ccc(OCC(O)C(C)(C)C)c(C)c3)c2)c(C)c1 (centres unmarked) [Compound 10c]
Reply: 73,18%

Query: Form field: reported %trans at the photostationary state of Cc1cc(OCC(O)C(C)(C)C)ccc1/N=N/c1cccc(-c2ccc(CO)cc2C)c1 (centres unmarked) [Compound 12d]
Reply: 66,82%

Query: Form field: reported %trans at the photostationary state of COC(=O)c1ccc(-c2cccc(/N=N/c3ccc(OCC(O)C(C)(C)C)cc3C)c2)cc1 (centres unmarked) [Compound 10b]
Reply: 64,35%

---

test: Proportions of cis and trans at the photostationary state in DMSO from absorbance spectra (Ernst Fischer method); assay type: physicochemical; details: 380 nm
// %cis at the photostationary state lookup, one value per entry

Observe how each entry below is paired with its result.
Query: Form field: reported %cis at the photostationary state of Cc1cc(/N=N/c2cccc(-c3ccc(C(=O)O)cc3C)c2)ccc1OCC(O)C(C)(C)C (stereo not shown) [Compound 11c]
Reply: 94,72%

Query: Form field: reported %cis at the photostationary state of COC(=O)c1ccc(-c2cccc(/N=N/c3ccc(OCC(O)C(C)(C)C)cc3C)c2)c(C)c1 (stereo not shown) [Compound 10d]
Reply: 95,32%

Query: Form field: reported %cis at the photostationary state of COC(=O)c1ccc(-c2cccc(/N=N/c3ccc(OCC(O)C(C)(C)C)cc3C)c2)cc1 (stereo not shown) [Compound 10b]
Reply: 96,48%

Query: Form field: reported %cis at the photostationary state of Cc1cc(OCC(O)C(C)(C)C)ccc1N=Nc1cccc(-c2ccc(C(=O)O)cc2)c1 (stereo not shown) [Compound 11b]
Reply: 95,62%

Query: Form field: reported %cis at the photostationary state of Cc1cc(/N=N/c2cccc(-c3ccc(CO)cc3)c2)ccc1OCC(O)C(C)(C)C (stereo not shown) [Compound 12a]
Reply: 95,61%

Query: Form field: reported %cis at the photostationary state of COC(=O)c1ccc(-c2cccc(/N=N/c3ccc(OCC(O)C(C)(C)C)c(C)c3)c2)c(C)c1 (stereo not shown) [Compound 10c]
Reply: 95,62%

Let us examine a further case.
Query: Form field: reported %cis at the photostationary state of Cc1cc(OCC(O)C(C)(C)C)ccc1/N=N/c1cccc(-c2ccc(CO)cc2C)c1 (stereo not shown) [Compound 12d]
Reply: 95,77%

---

Molecular target: VDR (Homo sapiens)
Sequence (P11473 whole entry, the tested form may be a part): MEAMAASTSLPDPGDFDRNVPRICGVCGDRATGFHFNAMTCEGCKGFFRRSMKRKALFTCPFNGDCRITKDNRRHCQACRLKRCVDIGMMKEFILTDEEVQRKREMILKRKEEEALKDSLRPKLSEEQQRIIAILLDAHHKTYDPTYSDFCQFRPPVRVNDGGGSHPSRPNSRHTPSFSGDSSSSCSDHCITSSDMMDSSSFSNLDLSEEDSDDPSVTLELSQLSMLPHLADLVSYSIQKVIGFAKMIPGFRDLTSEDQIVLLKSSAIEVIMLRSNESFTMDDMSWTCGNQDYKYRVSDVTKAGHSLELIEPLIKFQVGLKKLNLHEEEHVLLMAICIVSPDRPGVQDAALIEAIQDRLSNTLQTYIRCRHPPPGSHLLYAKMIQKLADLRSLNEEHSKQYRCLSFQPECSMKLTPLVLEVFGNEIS
Sequence (P19793 whole entry partner, the tested form may be a part): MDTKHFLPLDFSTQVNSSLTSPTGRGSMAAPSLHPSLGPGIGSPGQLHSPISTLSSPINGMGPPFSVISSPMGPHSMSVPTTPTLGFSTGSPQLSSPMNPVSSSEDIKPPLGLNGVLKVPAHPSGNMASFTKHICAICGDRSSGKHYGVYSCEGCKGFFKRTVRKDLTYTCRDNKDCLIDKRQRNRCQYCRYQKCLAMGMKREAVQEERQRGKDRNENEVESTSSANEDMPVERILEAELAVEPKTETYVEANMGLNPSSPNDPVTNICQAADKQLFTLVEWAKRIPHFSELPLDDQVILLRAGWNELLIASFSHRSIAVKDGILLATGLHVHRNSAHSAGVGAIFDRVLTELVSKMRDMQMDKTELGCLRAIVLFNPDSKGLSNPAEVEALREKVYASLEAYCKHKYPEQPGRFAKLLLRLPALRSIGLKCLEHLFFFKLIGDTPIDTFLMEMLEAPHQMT
Sequence (Q15648 whole entry partner, the tested form may be a part): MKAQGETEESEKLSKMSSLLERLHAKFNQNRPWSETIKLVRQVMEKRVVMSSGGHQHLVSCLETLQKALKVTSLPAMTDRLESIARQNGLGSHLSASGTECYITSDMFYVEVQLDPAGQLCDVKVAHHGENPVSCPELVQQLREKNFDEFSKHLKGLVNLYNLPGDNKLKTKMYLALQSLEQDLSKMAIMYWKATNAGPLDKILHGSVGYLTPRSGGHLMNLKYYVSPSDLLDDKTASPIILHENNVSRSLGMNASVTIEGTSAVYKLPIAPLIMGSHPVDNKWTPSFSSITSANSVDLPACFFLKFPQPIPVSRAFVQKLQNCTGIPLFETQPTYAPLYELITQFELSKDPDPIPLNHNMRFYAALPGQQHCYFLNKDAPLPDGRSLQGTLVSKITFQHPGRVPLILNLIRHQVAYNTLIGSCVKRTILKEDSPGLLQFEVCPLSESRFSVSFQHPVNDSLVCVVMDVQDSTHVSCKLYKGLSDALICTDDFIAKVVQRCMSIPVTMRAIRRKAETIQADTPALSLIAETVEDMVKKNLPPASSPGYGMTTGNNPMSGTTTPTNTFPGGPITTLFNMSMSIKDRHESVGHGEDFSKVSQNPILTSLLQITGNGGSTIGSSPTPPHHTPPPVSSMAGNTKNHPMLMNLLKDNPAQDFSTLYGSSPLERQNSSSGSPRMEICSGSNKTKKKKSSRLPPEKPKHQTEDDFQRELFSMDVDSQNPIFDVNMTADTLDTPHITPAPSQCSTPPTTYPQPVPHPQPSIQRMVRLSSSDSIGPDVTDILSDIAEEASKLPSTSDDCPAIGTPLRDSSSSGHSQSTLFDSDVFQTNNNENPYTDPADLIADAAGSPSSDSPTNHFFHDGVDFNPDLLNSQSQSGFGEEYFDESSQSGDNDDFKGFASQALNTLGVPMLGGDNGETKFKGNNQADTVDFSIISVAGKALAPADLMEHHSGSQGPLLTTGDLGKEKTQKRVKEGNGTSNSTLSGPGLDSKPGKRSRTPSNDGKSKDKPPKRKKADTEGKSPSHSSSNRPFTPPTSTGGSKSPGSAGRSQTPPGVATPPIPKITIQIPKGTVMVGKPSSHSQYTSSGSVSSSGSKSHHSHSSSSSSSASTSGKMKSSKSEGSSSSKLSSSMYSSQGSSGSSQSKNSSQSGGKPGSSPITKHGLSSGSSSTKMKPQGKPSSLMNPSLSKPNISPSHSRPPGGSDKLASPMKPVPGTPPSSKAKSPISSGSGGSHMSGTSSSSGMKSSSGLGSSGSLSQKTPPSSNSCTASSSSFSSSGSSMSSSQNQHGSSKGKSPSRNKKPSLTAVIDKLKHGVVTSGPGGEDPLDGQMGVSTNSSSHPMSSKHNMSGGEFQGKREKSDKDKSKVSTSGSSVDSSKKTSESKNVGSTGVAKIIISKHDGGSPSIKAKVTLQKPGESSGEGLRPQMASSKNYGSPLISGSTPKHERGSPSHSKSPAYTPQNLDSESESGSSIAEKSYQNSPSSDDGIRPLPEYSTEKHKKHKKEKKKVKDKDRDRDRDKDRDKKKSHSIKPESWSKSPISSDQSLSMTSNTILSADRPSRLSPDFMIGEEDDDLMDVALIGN
Assay: Luminescent proximity homogeneous assay (AlphaScreen): interaction of purified VDR, RxR and TRAP220 coactivator fragment
Assay type: biochemical
Conditions: after illumination (365 nm) for 3 min; normalized to maximum response of LSN2148936 (100%); mean ± SEM
Method: The activity of all molecules was evaluated using a luminescent proximity homogeneous assay to study interactions between purified VDR, RxR and a fragment of the transcriptional coactivator TRAP220 (Supporting Information). […] The activity of all molecules was evaluated using an in-vitro luminescent proximity homogeneous assay by using the Alphascreen technology (Cat No. 6760619R, Perkin Elmer, now Revvity). […]
REPORTED_ENDPOINT: Emax (%)

1: Cc1cc(OCC(O)C(C)(C)C)ccc1/N=N/c1cccc(-c2ccc(CO)cc2C)c1 (stereo not drawn) [Compound 12d]
2: COC(=O)c1ccc(-c2cccc(/N=N/c3ccc(OCC(O)C(C)(C)C)cc3C)c2)c(C)c1 (stereo not drawn) [Compound 10d]
Query: Lower Emax: 1 or 2 ? Could you answer with the label of the item you picked?
Reply: 2
(2: 30%, 1: 61%)

Recorded values, source paper PMC12746157.
